# test.description: chemical genetic growth profiling, strain panel (AID 1159580);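 further: tested at 20 µM; growth read once vehicle control cultures reached saturation at 30 °C; 1 = growth at the plate median or of vehicle wells; lower values mean less growth of the strain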
# measurement.context: S. cerevisiae deletion strains, growth OD, locus YOR184W, strain ser1, active compounds read low
The campaign covered roughly 5,500 compounds. About 2,000 (36%) were called active. Another 18% or so got no clear call; they are omitted. The list shows a part of the results.
Please go through the items and note down their normalized growth.
Could you respond with only the numeric value?

Could you tell me which normalized growth is on file for CC(=O)O[C@H]1CC[C@@]2(C)C(CC[C@]3(C)C2C(=O)C=C2C4[C@@H](C)[C@H](C)CC[C@]4(C(=O)O)CC[C@]23C)C1(C)C (some centres not stated) ? 0.995

// returns reported normalized growth for input C[C@@H]1OC(O[C@H]2[C@H](O)[C@@H](O)[C@H](OC[C@H]3O[C@@H](OC(=O)[C@]45CCC(C)(C)CC4C4=CCC6[C@@]7(C)CC[C@H](OC8OC[C@H](O)[C@H](O)[C@H]8OC8O[C@@H](C)[C@H](O)[C@@H](O)[C@H]8O)[C@@](C)(CO)C7CC[C@@]6(C)[C@]4(C)CC5)[C@H](O)[C@@H](O)[C@@H]3O)O[C@@H]2CO)[C@H](O)[C@H](O)[C@H]1O (some centres not stated) 1.01

---

# test.description: chemical genetic growth profiling, strain panel (AID 1159580);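 further: tested at 20 µM; growth read once vehicle control cultures reached saturation at 30 °C; 1 = growth at the plate median or of vehicle wells; lower values mean less growth of the strain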
# measurement.context: S. cerevisiae deletion strains, growth OD, locus YCL069W, strain vba3, active compounds read low
Hit rate of the full screen: of about 5,500 compounds, about 2,000 (36%) were called active. Roughly 18% stayed inconclusive and do not appear here. The list shows a part of the results.
For each of the compounds below, state its normalized growth.

I would be grateful if you could share the reported normalized growth for C[C@@H]1OC(O[C@H]2C(O[C@H]3CC[C@@]4(C)C(CC[C@]5(C)C4CC=C4C6CC(C)(C)CC[C@]6(C(=O)O)CC[C@]45C)[C@]3(C)CO)OC[C@H](O)[C@@H]2O)[C@H](O)[C@H](O)[C@H]1O (some centres undefined) . 0.0603 (active)

What value of normalized growth has been reported for the following compound? CC(=O)O[C@@H]1CC[C@@]2(C)C(CC[C@]3(C)C2CC=C2C4CC(C)(C)CC[C@]4(C(=O)O)CC[C@]23C)C1(C)C (some centres undefined) 1.01 (inactive)

Item CC1(C)CC[C@]2(C(=O)O)CC[C@]3(C)C(=CCC4[C@@]5(C)CC[C@H](O)[C@@](C)(CO)C5CC[C@]43C)C2C1 (some centres undefined) has what recorded normalized growth? 1.03 (inactive)

I'd like to know its normalized growth. The compound in question is CC1(C)CC(O)C2(C)CCC3(C)C(=CCC4C5(C)CCC(O)C(C)(CO)C5CCC43C)C2C1 (centres undefined) 1.03 (inactive)

---

# test.description: chemical genetic growth profiling, strain panel (AID 1159580);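 further: tested at 20 µM; growth read once vehicle control cultures reached saturation at 30 °C; 1 = growth at the plate median or of vehicle wells; lower values mean less growth of the strain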
# measurement.context: S. cerevisiae deletion strains, growth OD, locus YLR262C, strain YPT6, active compounds read low
Among all 5,500 compounds or so, about 2,000 (36%) were called active. About 18% were inconclusive and are not listed. This is one part of the list. Where a SMILES comes first, the peptide text is derived from it. Bridges are numbered along the chain shown (N, C = ends). [ ]: non-standard residue; d: D form. The star is where a group is joined. ξ: configuration not given here. ξDab(CH2SO3H) = NC(CCNCS(=O)(=O)O)C(=O)O; Heptanoyl(6-Me) = CC(C)CCCCC(=O)*; Dab = NCC[CH](N)C(=O)O
metric.name: normalized growth

Report normalized growth for `Cc1noc(C)c1C(=O)N1CCN(c2ncc(C(F)(F)F)cc2Cl)CC1` please. 0.979 (inactive)

What measured normalized growth goes with `O=c1oc2cc(O)ccc2s1` ? 0.981 (inactive)

May I ask what normalized growth has been recorded for `CCOC(=O)c1sc(-c2ccc(C)cc2)nc1O` ? 0.464 (active)

Name the reported normalized growth value associated with the molecule `CCOP(=S)(OCC)Oc1cc(C)nc(C(C)C)n1` 0.946 (inactive)

What value of normalized growth has been reported for the following molecule? Nc1ccccc1C(=O)CC(N)C(=O)O (stereo unspecified) 0.896 (inactive)

What does the data say about its normalized growth? Entry: `Nc1ccccc1C(=O)N/N=C\c1cccc2ccccc12` 0.803 (active)

Fill in: normalized growth of `Cc1cc(O)c2c(c1)Cc1cccc(O)c1C2=O` is ___ 0.517 (active)

Given the molecule `O=C1c2c(O)cccc2Cc2cccc(O)c21` , what is its reported normalized growth? 1.28 (inactive)

Entry under review: `CC(C)(C)c1nccc(-c2nn(-c3ccc(F)cc3)ccc2=O)n1` . Reported normalized growth? 0.974 (inactive)

// normalized growth lookup, key: CCC(C)C1NC(=O)C(CCNCS(=O)(=O)O)NC(=O)C(NC(=O)C(CCNCS(=O)(=O)O)NC(=O)C(NC(=O)C(CCNCS(=O)(=O)O)NC(=O)CCCCC(C)C)C(C)O)CCNC(=O)C(C(C)O)NC(=O)C(CCNCS(=O)(=O)O)NC(=O)C(CCNCS(=O)(=O)O)NC(=O)C(C(C)CC)NC1=O (stereo unspecified) ({Heptanoyl(6-Me)}-[ξDab(CH2SO3H)]T[ξDab(CH2SO3H)][Dab][ξDab(CH2SO3H)]II[ξDab(CH2SO3H)][ξDab(CH2SO3H)]T; lactam 4-C; configuration not given here) 0.992 (inactive)

// returns reported normalized growth for input `O=C(N/N=C\c1c(O)ccc2ccccc12)N/N=C\c1c(O)ccc2ccccc12` 0.953 (inactive)

Recorded normalized growth of `CNC(=O)O/N=C\C(C)(C)SC` , please. 1.06 (inactive)

Data request, read-out normalized growth, for O=C(O)/C=C1\CCCc2ccccc2C1O (stereo unspecified) 0.937 (inactive)

Please report the recorded normalized growth for `O=C(NC1CCN(Cc2ccc(Cl)c(Cl)c2)CC1)c1ccccc1` . 0.825 (inactive)

Consider the molecule shown here: `CNCc1ccccc1` What is its recorded normalized growth? 1 (inactive)

Which normalized growth value belongs to CC1=CCC2C3(C)C1=CC(=O)OC3CC1C(C)(C)CC(O)C(O)C12C (stereo unspecified) ? 1.17 (inactive)

Would you mind telling me what normalized growth value was observed for `O=[N+]([O-])c1ccc(S(=O)(=O)c2ccc(Cl)cc2)cc1O` ? 0.639 (active)

Query: normalized growth; subject: CC1(C)CC[C@]2(C(=O)O)CC[C@]3(C)C(=CCC4[C@@]5(C)CC[C@@H](O)C(C)(C)C5CC[C@]43C)C2C1 (stereo partly specified) 1.1 (inactive)

Returns the measured normalized growth for the input molecule. Input: `NCCC(=O)N[C@@H](Cc1cnc[nH]1)C(=O)O` 0.93 (inactive)

Report normalized growth for `COc1cc(OC)nc(N)n1` please. 0.96 (inactive)

Quick check: normalized growth of `O=S(=O)(CCN1CCOCC1)c1ccc(Cl)cc1` ? 1.07 (inactive)

For Cc1cccc(NC(=S)NC2CC3C=CC2C3)c1 (stereo unspecified) , what is its reported normalized growth? 0.825 (inactive)

Which measured normalized growth value corresponds to `Cc1c(S(=O)(=O)c2ccc(Cl)cc2)cnc2cc(C(C)(C)C)nn12` ? 1.03 (inactive)

# normalized growth lookup, item `O=C(O)c1ccc(N=Cc2ccc3c(c2)OCO3)cc1` 0.998 (inactive)

What normalized growth value was documented for this molecule, `C[C@@H]1CC[C@H]2[C@@H](C)C(=O)O[C@@H]3O[C@@]4(C)CC[C@@H]1[C@]32OO4` ? 0.364 (active)

Which normalized growth value is on record for `COC(=O)Nc1nc2ccc(Sc3ccccc3)cc2[nH]1` ? 0.965 (inactive)

Fill in: normalized growth of N#CC(NCc1ccccc1)c1ccc(Cl)c(Cl)c1 (stereo unspecified) is ___ 0.957 (inactive)

GET /values?readout=normalized growth&item= COC(=O)C1Cc2c([nH]c3ccccc23)C2(CCN(C)CC2)N1 (stereo unspecified) 0.981 (inactive)

// lookup normalized growth for `COC(=O)Nc1nc2ccc(C(=O)c3ccccc3)cc2[nH]1` 0.98 (inactive)

Consider the molecule shown here: `CCOP(=S)(OCC)Oc1nc(Cl)c(Cl)cc1Cl` What is its recorded normalized growth? 0.945 (inactive)

Reported normalized growth for `O=C(Nc1cc2cc([N+](=O)[O-])ccc2oc1=O)c1c(F)cccc1F` : what is it? 1.07 (inactive)

Endpoint output: normalized growth of CC(=O)NC(C(=O)O)C(C)(C)SN=O (stereo unspecified) . Value? 1.01 (inactive)

Which normalized growth value belongs to C[C@@H]1CC[C@]2(C(=O)O)CC[C@]3(C)C(=CCC4[C@@]5(C)CC[C@H](O)C(C)(C)C5CC[C@]43C)C2[C@H]1C (stereo partly specified) ? 1.11 (inactive)

If you can, please state the reported normalized growth value of `CCOC(=O)c1ccc2[nH]c(-c3ccccc3)cc(=O)c2c1` . 1.03 (inactive)

Item C#C[C@]1(OC(C)=O)CCC2C3CCC4=CC(=O)CC[C@@H]4C3CC[C@@]21C (stereo partly specified) has what recorded normalized growth? 0.842 (inactive)

Recorded normalized growth for C/C=C(/C)C(=O)O[C@@H]1[C@H](OC(C)=O)[C@@]2(CO)C(CC1(C)C)C1=CCC3[C@@]4(C)CC[C@H](O[C@@H]5O[C@H](C(=O)O)[C@@H](O[C@@H]6O[C@H](CO)[C@@H](O)[C@H](O)[C@H]6O)[C@H](O)[C@H]5O[C@@H]5O[C@H](CO)[C@@H](O)[C@H](O)[C@H]5O)[C@](C)(CO)C4CC[C@@]3(C)[C@]1(C)C[C@H]2O (stereo partly specified) , please? 1.08 (inactive)

Query: normalized growth; subject: C[C@@H]1OC(O[C@H]2[C@H](OC(=O)[C@]34CCC(C)(C)CC3C3=CCC5[C@@]6(C)CC[C@H](OC7O[C@@H](C)[C@H](O[C@@H]8OC[C@@H](O)[C@H](O)[C@H]8O)[C@@H](O)[C@H]7O)C(C)(C)C6CC[C@@]5(C)[C@]3(C)CC4O)OC[C@H](O)[C@H]2O)[C@H](O)[C@H](O)[C@H]1O[C@@H]1O[C@H](CO)[C@@H](O)[C@H](O)[C@H]1O (stereo partly specified) 0.709 (inactive)

So what's the measured normalized growth for this one? CC1C(=O)OC2C1CCC1(C)C=CC(=O)C3(C)OC213 (stereo unspecified) 0.996 (inactive)

Name the recorded normalized growth for `FC(F)(F)c1cnc(N2CCN(C(=S)Nc3ccccc3)CC2)c(Cl)c1` . 1.02 (inactive)

Quick check: normalized growth of `Cc1cccc(NC(=S)NCc2ccncc2)c1` ? 1.01 (inactive)

What value of normalized growth has been reported for the following molecule? `Nc1ccc(S(=O)(=O)c2ccc(N)cc2)cc1` 1.02 (inactive)

Provenance of the data: PubChem BioAssay AID1159580
